Where these numbers come from: the supplement of paper PMC4932681

Please provide measured drug sensitivity score for the entries that follow.
Test system: BT-474 Tam2
Assay info: drug sensitivity score (DSS) (DSS (dimensionless)); higher = more sensitive; extreme values may be limits of the assay
Condition summary: 4-OH-tamoxifen in medium 1 µM; 72 h
Please give only the number in your answer, with no unit.

Incoming: Look up drug sensitivity score for this compound: CC(=O)[C@]1(O)Cc2c(O)c3c(c(O)c2[C@@H](O[C@H]2C[C@H](N)[C@H](O)[C@H](C)O2)C1)C(=O)c1ccccc1C3=O
Outgoing: 3.03

Incoming: Oc1nc(-c2ccc(C(F)(F)F)cc2)nc2c1CSCC2 ?
Outgoing: 3.71

Incoming: COc1cc(CCc2cc(NC(=O)c3ccc(N4CC(C)NC(C)C4)cc3)n[nH]2)cc(OC)c1 (stereo unspecified) ?
Outgoing: 0

Incoming: O=P(O)(NCCCl)NCCCl [Ifosfamide mustard] ?
Outgoing: 0

Incoming: Cc1cccc(-c2nn3c(c2-c2ccnc4ccc(C(N)=O)cc24)CCC3)n1 ?
Outgoing: 0

Incoming: N#CCNC(=O)c1ccc(-c2ccnc(Nc3ccc(N4CCOCC4)cc3)n2)cc1 ?
Outgoing: 0.414

Incoming: CC(C)C[C@H](NC(=O)[C@H](Cc1ccccc1)NC(=O)c1cnccn1)B(O)O ?
Outgoing: 26.7

Incoming: C/C(=C\c1csc(C)n1)[C@@H]1C[C@@H]2O[C@]2(C)CCC[C@H](C)[C@H](O)[C@@H](C)C(=O)C(C)(C)[C@@H](O)CC(=O)N1 [Ixabepilone] ?
Outgoing: 0

Incoming: C[C@H]1C[C@@H]2[C@H]([C@@H](O)C[C@@]3(C)[C@H]2CC[C@]3(O)C(=O)CO)[C@@]2(C)C=CC(=O)C=C12 ?
Outgoing: 0

Incoming: CCc1cncnc1N1CCN(Cc2nc3ccc(C(F)(F)F)cc3[nH]2)CC1 ?
Outgoing: 2.05

Incoming: COc1cc([C@@H]2c3cc4c(cc3[C@@H](O[C@@H]3O[C@@H]5CO[C@@H](C)O[C@H]5[C@H](O)[C@H]3O)[C@H]3COC(=O)[C@H]23)OCO4)cc(OC)c1O [Etoposide] ?
Outgoing: 0

Incoming: Clc1ccc(Nc2nnc(Cc3ccncc3)c3ccccc23)cc1 ?
Outgoing: 0.0042

Incoming: CC[C@@]1(O)C(=O)OCc2c1cc1n(c2=O)Cc2cc3ccccc3nc2-1 ?
Outgoing: 0

Incoming: CN1CCC(COc2cnc(-c3cccc(Cn4nc(-c5cccc(C#N)c5)ccc4=O)c3)nc2)CC1 ?
Outgoing: 1.22

Incoming: CC(C)Cn1cnc2c(N)nc3ccccc3c21 ?
Outgoing: 0

Incoming: COc1cc2c(cc1O)CC[C@@H]1[C@@H]2CC[C@]2(C)[C@@H](O)CC[C@@H]12 ?
Outgoing: 0.943

---

Please provide measured drug sensitivity score for the entries that follow.
Test system: BT-474 Tam1
Assay info: drug sensitivity score (DSS) (DSS (dimensionless)); higher = more sensitive; extreme values may be limits of the assay
Condition summary: 4-OH-tamoxifen in medium 1 µM; 72 h
Please give only the number in your answer, with no unit.

Incoming: Provide value of drug sensitivity score for this record tested with BT-474 Tam1: CO[C@H]1/C=C\C=C(/C)C(=O)NC2=CC(=O)C(NCCN(C)C)=C(C[C@@H](C)C[C@H](OC)[C@H](O)[C@@H](C)/C=C(\C)[C@@H]1OC(N)=O)C2=O [Alvespimycin (17-DMAG)]
Outgoing: 16.9

Incoming: Cc1ccc(C(=O)Nc2ccc(CN3CCN(C)CC3)c(C(F)(F)F)c2)cc1C#Cc1cnc2cccnn12 ?
Outgoing: 1.26

Incoming: Cc1c(CN2CCN(C(=O)[C@H](C)O)CC2)sc2c(N3CCOCC3)nc(-c3cnc(N)nc3)nc12 [GDC-0980] ?
Outgoing: 18.3

Incoming: COc1cc2ncnc(Nc3ccc(F)c(Cl)c3)c2cc1OCCCN1CCOCC1 [Gefitinib] ?
Outgoing: 24.9

Incoming: CN(C)C/C=C/C(=O)Nc1cc2c(Nc3ccc(F)c(Cl)c3)ncnc2cc1O[C@H]1CCOC1 [Afatinib (BIBW2992, Tovok)] ?
Outgoing: 21.9

Incoming: CC1(C)CNc2cc(NC(=O)c3cccnc3NCc3ccncc3)ccc21 [Motesanib (AMG-706)] ?
Outgoing: 0

Incoming: Nc1ncn([C@H]2C[C@H](O)[C@@H](CO)O2)c(=O)n1 [Decitabine (Dacogen)] ?
Outgoing: 0

Incoming: COc1ccccc1S(=O)(=O)Nc1ccc2c(c1)CN(C)C(=O)N2 [PFI-1] ?
Outgoing: 0.704

Incoming: CC[C@H](Nc1ncnc2[nH]cnc12)c1nc2cccc(F)c2c(=O)n1-c1ccccc1 [CAL-101] ?
Outgoing: 0

Incoming: CC/C(=C(\c1ccc(O)cc1)c1ccc(OCCN(C)C)cc1)c1ccccc1 [4-hydroxytamoxifen] ?
Outgoing: 9.04

Incoming: Cc1[nH]c2ccccc2c1CCNCc1ccc(/C=C/C(=O)NO)cc1 [Panobinostat] ?
Outgoing: 19.8

Incoming: O=P(O)(NCCCl)NCCCl [Ifosfamide mustard] ?
Outgoing: 0

Incoming: Nc1nc(Cl)nc2c1ncn2[C@@H]1O[C@H](CO)[C@@H](O)[C@@H]1F [Clofarabine] ?
Outgoing: 0

Incoming: Cc1c(C(=O)Nc2ccc(N3C[C@@H](C)O[C@@H](C)C3)nc2)cccc1-c1ccc(OC(F)(F)F)cc1 [Erismodegib (NVP-LDE225)] ?
Outgoing: 0.226

Incoming: COc1ccc(C2=N[C@@H](c3ccc(Cl)cc3)[C@@H](c3ccc(Cl)cc3)N2C(=O)N2CCNC(=O)C2)c(OC(C)C)c1 [Nutlin-3] ?
Outgoing: 1.52

Incoming: CC(=O)[C@]1(O)Cc2c(O)c3c(c(O)c2[C@@H](O[C@H]2C[C@H](N)[C@H](O)[C@H](C)O2)C1)C(=O)c1ccccc1C3=O [Idarubicin] ?
Outgoing: 3.94

Incoming: CO[C@@H](C(=O)N1Cc2[nH]nc(NC(=O)c3ccc(N4CCN(C)CC4)cc3)c2C1)c1ccccc1 ?
Outgoing: 0

Incoming: COc1nc(N)nc2c1ncn2[C@@H]1O[C@H](CO)[C@@H](O)[C@@H]1O [Nelarabine] ?
Outgoing: 0

Incoming: CN1CCc2c(c3ccccc3n2Cc2ccc(C(=O)NO)cc2)C1 [Tubastatin A] ?
Outgoing: 1.77

Incoming: COCC1(CO)C(=O)C2CCN1CC2 (stereo unspecified) [Prima-1 Met] ?
Outgoing: 0

Incoming: C[C@]12C=CC(=O)C=C1CC[C@@H]1[C@@H]2[C@@H](O)C[C@@]2(C)[C@H]1CC[C@]2(O)C(=O)CO [Prednisolone] ?
Outgoing: 0

Incoming: O=C(CCBr)N1CCN(C(=O)CCBr)CC1 [Pipobroman] ?
Outgoing: 0

Incoming: CC(=O)OC[C@H]1O[C@@H]([S-])[C@H](OC(C)=O)[C@@H](OC(C)=O)[C@@H]1OC(C)=O.CCP(CC)CC.[Au+] [Auranofin] ?
Outgoing: 5

Incoming: CC(C)(C)NC(=O)[C@H]1CC[C@H]2[C@@H]3CC[C@H]4NC(=O)C=C[C@]4(C)[C@H]3CC[C@]12C [Finasteride] ?
Outgoing: 1.69

Incoming: Nc1nc2[nH]cnc2c(=S)[nH]1 [Thioguanine] ?
Outgoing: 0.758

Incoming: CCN(CC)CCCC(C)Nc1ccnc2cc(Cl)ccc12 (stereo unspecified) [Chloroquine] ?
Outgoing: 0.266
